Cited source: patent US20250206841A1

- tgt: T1, cynomolgus Trop-2-His protein (cynomolgus, UniProt P09758 27-274 (human entry))
- T1 construct: also called cynmolgus Trop-His; Kactus Cat #TRP-CM121; not shown: His tag
- T1 chain: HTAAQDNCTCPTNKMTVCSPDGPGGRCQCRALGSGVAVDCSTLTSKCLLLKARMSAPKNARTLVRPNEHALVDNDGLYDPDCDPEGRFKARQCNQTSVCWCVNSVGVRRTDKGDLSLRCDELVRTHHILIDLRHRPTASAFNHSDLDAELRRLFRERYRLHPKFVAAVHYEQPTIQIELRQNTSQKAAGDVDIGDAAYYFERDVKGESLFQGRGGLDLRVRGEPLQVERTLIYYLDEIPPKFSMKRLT
- test.method.notes: BLI (Gator Prime), LEM supernatant Ab on HFC probe
reported.property: kon (M⁻¹ s⁻¹)
Answers are plain numbers, in M⁻¹ s⁻¹.

63H3 (antibody, V domains shown, Rabbit-derived clone; LEM construct: VH + rabbit IgG CH1 + human IgG1 CH2-CH3) VH: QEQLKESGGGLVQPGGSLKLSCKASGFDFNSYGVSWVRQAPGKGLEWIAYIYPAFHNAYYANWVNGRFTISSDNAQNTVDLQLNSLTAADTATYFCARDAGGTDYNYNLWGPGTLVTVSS VL: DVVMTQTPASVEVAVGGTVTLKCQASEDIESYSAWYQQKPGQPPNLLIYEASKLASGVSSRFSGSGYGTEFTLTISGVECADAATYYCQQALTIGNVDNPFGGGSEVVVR = 740000
72F12 (antibody, V domains shown, Rabbit-derived clone; LEM construct: VH + rabbit IgG CH1 + human IgG1 CH2-CH3) VH: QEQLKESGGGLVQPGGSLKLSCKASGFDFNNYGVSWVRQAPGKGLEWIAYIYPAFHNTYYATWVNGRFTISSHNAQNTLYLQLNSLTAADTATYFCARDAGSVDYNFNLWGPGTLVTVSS VL: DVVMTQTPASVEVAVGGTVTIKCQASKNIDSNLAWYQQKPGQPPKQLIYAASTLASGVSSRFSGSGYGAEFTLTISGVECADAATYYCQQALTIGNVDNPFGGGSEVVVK = 898000
71F10 (antibody, V domains shown, Rabbit-derived clone; LEM construct: VH + rabbit IgG CH1 + human IgG1 CH2-CH3) VH: QSLEESGGGLVQPGASLTLTCTVSGFDFSSNAMTWVRQAPGEGLEYIGFIGIRGNIYYANWAKGRFTISKTSSTTVTLQMTSLTVADTATYFCARGGLWTGNSYFDLWGPGTLVTVSS VL: YDMTQTPASVSAAVGGTVTINCQASESISRYLAWYQQKPGQPPKPLIYRASTLASGVPSRFKGSGTGTDYTLTISDLECADAATYYCQQGYGYSTVGNAFGGGTEVVVK = 721000

For each entry beneath this line, provide reported kon.
1. 62E3 (antibody, V domains shown, Rabbit-derived clone; LEM construct: VH + rabbit IgG CH1 + human IgG1 CH2-CH3) VH: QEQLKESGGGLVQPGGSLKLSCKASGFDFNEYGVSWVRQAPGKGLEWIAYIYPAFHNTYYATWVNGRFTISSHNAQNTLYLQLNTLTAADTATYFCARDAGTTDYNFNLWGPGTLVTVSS VL: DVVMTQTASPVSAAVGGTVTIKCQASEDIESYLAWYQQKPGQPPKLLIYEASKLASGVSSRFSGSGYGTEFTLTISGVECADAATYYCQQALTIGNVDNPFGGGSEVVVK
2. 1D10 (antibody, V domains shown, Rabbit-derived clone; LEM construct: VH + rabbit IgG CH1 + human IgG1 CH2-CH3) VH: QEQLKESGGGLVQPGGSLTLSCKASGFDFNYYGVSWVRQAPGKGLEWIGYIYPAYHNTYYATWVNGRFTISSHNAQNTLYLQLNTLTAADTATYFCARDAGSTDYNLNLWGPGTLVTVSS VL: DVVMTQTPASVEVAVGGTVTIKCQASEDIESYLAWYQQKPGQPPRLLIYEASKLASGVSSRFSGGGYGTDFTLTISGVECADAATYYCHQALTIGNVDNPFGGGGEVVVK

output:
651000
688000
